target: human cannabinoid CB1 receptor (Homo sapiens, UniProt P21554); assay: biochemical; type: binding; design: expressed in transfected cells; host or cells: Chinese hamster ovary (CHO) cells, membrane preparation; conditions: hCB1 pKi, [3H]CP-55,940 radioligand; CHO cell membranes stably transfected with human CB1
Sequence (P21554 whole entry): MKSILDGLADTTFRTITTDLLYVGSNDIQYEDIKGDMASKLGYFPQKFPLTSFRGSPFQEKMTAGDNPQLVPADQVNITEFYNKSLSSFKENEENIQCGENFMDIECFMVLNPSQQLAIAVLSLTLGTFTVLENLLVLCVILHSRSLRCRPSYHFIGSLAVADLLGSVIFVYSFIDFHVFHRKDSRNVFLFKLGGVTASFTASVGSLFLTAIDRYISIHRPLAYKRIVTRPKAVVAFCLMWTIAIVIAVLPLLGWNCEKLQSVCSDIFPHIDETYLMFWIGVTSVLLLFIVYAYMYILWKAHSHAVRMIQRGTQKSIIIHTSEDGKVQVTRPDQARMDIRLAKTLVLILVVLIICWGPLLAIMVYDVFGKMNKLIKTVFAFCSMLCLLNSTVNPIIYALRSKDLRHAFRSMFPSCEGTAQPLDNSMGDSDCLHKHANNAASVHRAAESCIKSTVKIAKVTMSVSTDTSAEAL
endpoint_name: pKi
Numbers only, as −log10 of the molar value.

{"columns": ["molecule", "endpoint_name", "quantitative_result"],
 "data": [
  ["CCc1c(C(=O)NN2CCCCCC2)nc(-c2ccc(Cl)cc2Cl)n1-c1ccc(Cl)cn1", "pKi", 7.50],
  ["COc1ccc(-n2cc(C(=O)NN3CCCCC3)nc2-c2ccc(Cl)cc2Cl)cc1", "pKi", 7.30],
  ["Cc1c(C(=O)NCc2cccc(C(F)(F)F)c2)nc(-c2ccc(Cl)cc2Cl)n1-c1ccc(Cl)cc1", "pKi", 7.50],
  ["CCCCCNC(=O)c1nc(-c2ccc(Cl)cc2Cl)n(-c2ccc(Cl)cn2)c1C", "pKi", 7.30],
  ["CS(=O)(=O)c1c(C(=O)NN2CCCCC2)nc(-c2ccc(Cl)cc2Cl)n1-c1ccc(Cl)cc1", "pKi", 7.80]
]}

Parameter requested: pKi. Apply to each item below.
1. CSc1c(C(=O)NN2CCCCC2)nc(-c2ccc(Cl)cc2Cl)n1-c1ccc(Cl)cc1
2. O=C(NC1CCCCC1)c1cn(-c2ccc(F)cc2)c(-c2ccc(Cl)cc2Cl)n1
3. O=C(NN1CC2CCCC2C1)c1cn(-c2ccc(Cl)cc2)c(-c2ccc(Cl)cc2Cl)n1 (stereo not drawn)
4. O=C(NN1CCCCC1)c1nc(-c2ccc(Cl)cc2Cl)n(-c2ccc(Cl)cc2)c1I
5. CCc1c(C(=O)NN2CCCCC2)nc(-c2ccccc2Cl)n1-c1ccc(Cl)cn1

1. 7.90
2. 7.60
3. 6.30
4. 8.20
5. 7.90

Parameter requested: pKi. Apply to each item below.
1. O=C(NN1CCCC1)c1cn(-c2ccc(Cl)cc2)c(-c2ccc(Cl)cc2Cl)n1
2. N#Cc1c(C(=O)NC2CCCCC2)nc(-c2ccc(Cl)cc2Cl)n1-c1ccc(Cl)cc1

7.00
7.80

* * *

Exercise: state measured melting point for each of the compounds provided.

Parameter requested: melting point. Apply to each item below.
1. CCc1c(C(=O)NC2CCCCC2)nc(-c2ccc(Cl)cc2Cl)n1-c1cc(F)ccc1F [Example 97]
2. Cc1c(C(=O)NC2CCCCC2)nc(-c2ccc(Cl)cc2Cl)n1-c1ccc(F)cc1

["144 to 146 °C", "229 to 230 °C"]

Parameter requested: melting point. Apply to each item below.
1. O=C(NN1CCCCC1)c1cn(-c2cccnc2)c(-c2ccc(Cl)cc2Cl)n1 [Example 42]
2. COc1ccc(-n2cc(C(=O)NC3CCCCC3)nc2-c2ccc(Cl)cc2Cl)cc1 [Example 36]
3. O=C(NN1CCCC1)c1cn(-c2ccc(Br)cc2)c(-c2ccc(Cl)cc2Cl)n1

["165 to 170 °C", "175 to 176 °C", "238 to 240 °C"]

* * *

biological target: human cannabinoid CB1 receptor (Homo sapiens, UniProt P21554); test: biochemical; format: binding; set-up: expressed in transfected cells; host or cells: Chinese hamster ovary (CHO) cells, membrane preparation; conditions: [3H]CP-55,940 radioligand; CHO cell membranes stably transfected with human CB1; read-out: hCB1 pKi (converted)
Exercise: state measured Ki for each of the compounds provided.
Numbers only, in nM.

Below: 3 compounds and their reported Ki.
{"columns": ["compound", "Ki [nM]"],
 "data": [
  ["O=C(Nc1ccccc1)c1cn(-c2ccc(Cl)cc2)c(-c2ccc(Cl)cc2Cl)n1 [Example 4]", 126],
  ["O=C(NC1CCCCC1)c1cn(-c2ccc(Cl)cc2)c(-c2ccc(Cl)cc2C(F)(F)F)n1 [Example 38]", 200],
  ["Cc1c(C(=O)NN2CCCCC2)nc(-c2ccc(Cl)cc2F)n1-c1ccc(Cl)cc1 [Example 66]", 501]
]}

Which measured Ki belongs to CC(C)(C)ONC(=O)c1cn(-c2ccc(Cl)cc2)c(-c2ccc(Cl)cc2Cl)n1 [Example 3] , tested on human cannabinoid CB1 receptor (Homo sapiens, UniProt P21554)? 158
